Experiment: Metabolic stability in human liver microsomes assessed as parent compound remaining at 3 uM after 30 mins by LC-MS/MS method
Assay type: ADME, microsome
Settings: read-out: Stability
reported-endpoint: remaining at 0.5 h, 3 µM (%)

I. CN1Cc2cc(-c3ccc(-c4cncc(NS(=O)(=O)c5ccc(C#N)cc5)c4)s3)ccc2C1=O
II. CN1Cc2cc(-c3ccc(-c4cncc(NS(=O)(=O)c5ccccc5C(F)(F)F)c4)s3)ccc2C1=O
## Task Compare I and II and name the one whose reported remaining at 0.5 h, 3 µM is smaller. Bench note: the answer is the label of the chosen record.
## Result II

I. CN1Cc2cc(-c3ccc(-c4cncc(NS(=O)(=O)c5ccc([N+](=O)[O-])cc5)c4)s3)ccc2C1=O
II. CN1Cc2cc(-c3ccc(-c4cncc(NS(=O)(=O)c5cccc(C(F)(F)F)c5)c4)s3)ccc2C1=O
## Task Which gives the smaller remaining at 0.5 h, 3 µM number: I or II ? Mark your selection by writing its label.
## Result I
